# STUDY_TARGET: BNGR-A9
# EXPERIMENT_NOTES: CRE-driven luciferase reporter assay, BNGR-A9
# Assay type: cell-based, Bombyx mori
# STATED_CONDITIONS: BmN cells stably expressing BNGR-A9; 4 h; dose-response, at least three independent experiments
ASSAY_ENDPOINT: EC50 (nM)
Note: unit nM is implicit; provide only the numeric part.

For record GDDTFDD^8YGHLRF-NH2 [BmnsSK, Bombyx mori Non-sulfated-sulfakinin, synthetic; nonsulfated version of GDDTFDD^8YGHLRF-NH2] the listed EC50 is 125
